biological target: dihydropyrimidinase (DHP) (Homo sapiens); assay: HPLC assay of […],6-dihydrouracil; type: biochemical
Sequence (Q14117 whole entry): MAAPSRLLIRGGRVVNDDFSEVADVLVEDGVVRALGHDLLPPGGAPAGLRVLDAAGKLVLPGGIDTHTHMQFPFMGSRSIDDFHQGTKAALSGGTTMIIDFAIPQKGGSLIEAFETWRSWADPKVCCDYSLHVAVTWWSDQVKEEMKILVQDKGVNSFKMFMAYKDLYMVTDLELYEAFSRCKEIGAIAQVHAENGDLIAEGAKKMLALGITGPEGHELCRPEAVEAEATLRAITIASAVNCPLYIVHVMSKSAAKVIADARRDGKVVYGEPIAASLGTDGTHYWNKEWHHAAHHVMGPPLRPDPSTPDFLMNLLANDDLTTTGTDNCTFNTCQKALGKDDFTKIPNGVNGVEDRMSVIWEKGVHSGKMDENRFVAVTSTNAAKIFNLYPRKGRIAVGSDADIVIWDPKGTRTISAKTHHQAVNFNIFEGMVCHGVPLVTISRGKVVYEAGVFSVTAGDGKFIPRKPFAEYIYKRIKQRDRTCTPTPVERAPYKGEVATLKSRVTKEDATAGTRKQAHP

{"molecule": "O=C1c2c(O)cc(O)cc2O[C@H](c2cc(O)c(O)c(O)c2)[C@H]1O [dihydromyricetin]", "target-desc": "dihydropyrimidinase (DHP) (Homo sapiens)", "IC50": "~6 µM"}
